Every entry's value here was drawn from ChEMBL document CHEMBL4699542.

What pIC50 was measured for each of the following?
# test.target: Cytochrome P450 2D6 (Homo sapiens)
# Sequence (P10635 whole entry): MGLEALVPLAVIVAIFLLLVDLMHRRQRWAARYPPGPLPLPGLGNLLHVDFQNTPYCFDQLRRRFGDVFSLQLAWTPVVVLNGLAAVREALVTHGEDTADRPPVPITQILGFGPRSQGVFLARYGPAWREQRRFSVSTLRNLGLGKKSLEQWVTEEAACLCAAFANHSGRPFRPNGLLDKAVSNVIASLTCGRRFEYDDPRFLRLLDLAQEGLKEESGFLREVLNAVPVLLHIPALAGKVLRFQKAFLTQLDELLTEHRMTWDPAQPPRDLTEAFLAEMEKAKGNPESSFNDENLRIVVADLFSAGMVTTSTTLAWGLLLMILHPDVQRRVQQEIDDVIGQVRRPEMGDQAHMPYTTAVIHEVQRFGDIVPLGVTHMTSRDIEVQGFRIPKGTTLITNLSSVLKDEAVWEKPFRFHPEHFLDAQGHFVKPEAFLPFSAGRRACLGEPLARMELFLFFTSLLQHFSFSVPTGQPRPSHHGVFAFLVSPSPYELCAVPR
# protocol.description: Inhibition of recombinant CYP2D6 (unknown origin) by fluorescence-based assay
pIC50: −log10 of the molar value.

Prompt: Fill in: pIC50 of "CCn1nc2c(c1Nc1nc(-c3ccc(-n4cnc(C)c4)c(OC)n3)cs1)CCC2(C)C" is ___
Response: < 4.00

Prompt: Fill in: pIC50 of "CCn1nc(C2(C)CC2)cc1Nc1nc(-c2ccc(-n3cnc(C)c3)c(OC)n2)cs1" is ___
Response: < 4.00

Prompt: Fill in: pIC50 of "COc1nc(-c2csc(Nc3c4c(nn3CC(F)(F)F)CCC4)n2)ccc1-n1cnc(C)c1" is ___
Response: < 4.00

Prompt: Fill in: pIC50 of "COc1nc(-c2csc(Nc3c4c(nn3CCO)CCC4)n2)ccc1-n1cnc(C)c1" is ___
Response: < 4.00

Prompt: Fill in: pIC50 of "COc1nc(-c2csc(Nc3c4c(nn3C(C)(C)C)CCCC4)n2)ccc1-n1cnc(C)c1" is ___
Response: < 4.00

Prompt: Fill in: pIC50 of "CCn1nc(C(F)(F)F)cc1Nc1nc(-c2ccc(-n3cnc(C)c3)c(OC)n2)cs1" is ___
Response: < 4.00

Prompt: Fill in: pIC50 of "COc1nc(-c2csc(Nc3c4c(nn3C)CCC4)n2)ccc1-n1cnc(C)c1" is ___
Response: < 4.00

Prompt: Fill in: pIC50 of CCn1nc2c(c1Nc1nc(-c3ccc(-n4cnc(C)c4)c(OC)n3)cs1)C(C)CC2(C)C (racemic) is ___
Response: < 4.00

Prompt: Fill in: pIC50 of "COc1nc(-c2csc(Nc3c4c(nn3CC(C)(C)O)CCCC4)n2)ccc1-n1cnc(C)c1" is ___
Response: < 4.00

Prompt: Fill in: pIC50 of "COc1nc(-c2csc(Nc3c4c(nn3CCF)CCCC4)n2)ccc1-n1cnc(C)c1" is ___
Response: < 4.00

Prompt: Fill in: pIC50 of "COc1nc(-c2csc(Nc3cc(C(C)(C)C)nn3CCF)n2)ccc1-n1cnc(C)c1" is ___
Response: < 4.00

Prompt: Fill in: pIC50 of "COc1nc(-c2csc(Nc3c4c(nn3C3CCC3)CCCC4)n2)ccc1-n1cnc(C)c1" is ___
Response: < 4.00

Prompt: Fill in: pIC50 of "CCn1nc2c(c1Nc1nc(-c3ccc(-n4cnc(C)c4)c(OC)n3)cs1)CCCCC2" is ___
Response: < 4.00

Prompt: Fill in: pIC50 of "COc1nc(-c2csc(Nc3cc(C(C)(C)C)nn3CC(F)(F)F)n2)ccc1-n1cnc(C)c1" is ___
Response: < 4.00

Prompt: Fill in: pIC50 of "COc1nc(-c2csc(Nc3c4c(nn3CCO)CCCC4)n2)ccc1-n1cnc(C)c1" is ___
Response: < 4.00

Prompt: Fill in: pIC50 of "CCn1nc2c(c1Nc1nc(-c3ccc(-n4cnc(C)c4)c(OC)n3)cs1)CCC2" is ___
Response: < 4.00

Prompt: Fill in: pIC50 of "COc1nc(-c2csc(Nc3c4c(nn3CCCO)CCCC4)n2)ccc1-n1cnc(C)c1" is ___
Response: < 4.00

Prompt: Fill in: pIC50 of "COc1nc(-c2csc(Nc3c4c(nn3CCF)CCC4)n2)ccc1-n1cnc(C)c1" is ___
Response: < 4.00

Prompt: Fill in: pIC50 of "CCn1nc2c(c1Nc1nc(-c3ccc(-n4cnc(C)c4)c(OC)n3)cs1)CCCC2" is ___
Response: < 4.00

Prompt: Fill in: pIC50 of "COc1nc(-c2csc(Nc3cc(C(C)(C)C)nn3C(C)C)n2)ccc1-n1cnc(C)c1" is ___
Response: < 4.00
